measured.target: UniProt:P06401
test.description: Progesterone receptor-antagonistic action in stably transfected SK-N-MC cells, MMTV-LUC reporter (PR-B)
measurement.context: antagonistic potency vs 0.1 nmol/l promegestone, 24 hours
metric: IC50 (nM)

test.smiles	metric	result.unit	readout.value
C[C@]12C[C@H](c3ccc(COC(=O)NCCC(=O)O)cc3)C3=C4CCC(=O)C=C4CC[C@H]3[C@@H]1CC[C@@]2(O)C(F)(F)C(F)(F)F	IC50	nM	10
C[C@]12C[C@H](c3ccc(COC(=O)Nc4ccc(N5CCCCC5)cc4)cc3)C3=C4CCC(=O)C=C4CC[C@H]3[C@@H]1CC[C@@]2(O)C(F)(F)C(F)(F)F	IC50	nM	0.09
CC1(c2ccc([C@H]3C[C@@]4(C)[C@@H](CC[C@@]4(O)C(F)(F)C(F)(F)F)[C@@H]4CCC5=CC(=O)CCC5=C43)cc2)COC1	IC50	nM	0.05

a. C[C@]12C[C@H](c3ccc(C4CC4)cc3)C3=C4CCC(=O)C=C4CC[C@H]3[C@@H]1CC[C@@]2(O)C(F)(F)C(F)(F)F
b. C[C@]12C[C@H](c3ccc(CCC#N)cc3)C3=C4CCC(=O)C=C4CC[C@H]3[C@@H]1CC[C@@]2(O)C(F)(F)C(F)(F)F
Q: Among a and b , which shows a numerically higher IC50 result? Output the label that corresponds to your choice.
A: b
(b: 0.1 nM, a: 0.004 nM)

* * *

test.description: Metabolic stability in rat liver microsomes
Type: in vitro ADME
measurement.context: calculated from liver microsome clearance
Description: Determination of Metabolic Stability in Human and Rat Liver Microsomes The incubations were conducted with 2.4 ml of HLM solution (protein content 0.5 mg/ml), 30 μl of the test compound (final concentration 1 μM) and 0.6 ml of the cofactor mixture (=NADPH-generating system composed of 3 IU glucose-6-phosphate dehydrogenase, 14.6 mg glucose-6-phosphate, 1.2 mg NADP) at 37° C. in 100 mM phosphate buffer at pH 7.4. […]
metric: Predicted Fmax (maximum oral bioavailability) (%)

compound	result.unit	readout.value
CC(C)(O)c1ccc([C@H]2C[C@@]3(C)[C@@H](CC[C@@]3(O)C(F)(F)C(F)(F)F)[C@@H]3CCC4=CC(=O)CCC4=C32)cc1 [Example 5]	%	52

1. C[C@]12C[C@H](c3ccc(CNC(=O)Nc4ccccc4)cc3)C3=C4CCC(=O)C=C4CC[C@H]3[C@@H]1CC[C@@]2(O)C(F)(F)C(F)(F)F [Example 24]
2. C[C@]12C[C@H](c3ccc(CNC(=O)NCc4ccccc4)cc3)C3=C4CCC(=O)C=C4CC[C@H]3[C@@H]1CC[C@@]2(O)C(F)(F)C(F)(F)F [Example 23]
Q: Which item exceeds the other in Predicted Fmax (maximum oral bioavailability), 1 or 2 ? Could you answer with the label of the item you picked?
A: 1

* * *

measured.target: human progesterone receptor A (Homo sapiens)
Sequence (P06401 1-769 isoform P06401-2): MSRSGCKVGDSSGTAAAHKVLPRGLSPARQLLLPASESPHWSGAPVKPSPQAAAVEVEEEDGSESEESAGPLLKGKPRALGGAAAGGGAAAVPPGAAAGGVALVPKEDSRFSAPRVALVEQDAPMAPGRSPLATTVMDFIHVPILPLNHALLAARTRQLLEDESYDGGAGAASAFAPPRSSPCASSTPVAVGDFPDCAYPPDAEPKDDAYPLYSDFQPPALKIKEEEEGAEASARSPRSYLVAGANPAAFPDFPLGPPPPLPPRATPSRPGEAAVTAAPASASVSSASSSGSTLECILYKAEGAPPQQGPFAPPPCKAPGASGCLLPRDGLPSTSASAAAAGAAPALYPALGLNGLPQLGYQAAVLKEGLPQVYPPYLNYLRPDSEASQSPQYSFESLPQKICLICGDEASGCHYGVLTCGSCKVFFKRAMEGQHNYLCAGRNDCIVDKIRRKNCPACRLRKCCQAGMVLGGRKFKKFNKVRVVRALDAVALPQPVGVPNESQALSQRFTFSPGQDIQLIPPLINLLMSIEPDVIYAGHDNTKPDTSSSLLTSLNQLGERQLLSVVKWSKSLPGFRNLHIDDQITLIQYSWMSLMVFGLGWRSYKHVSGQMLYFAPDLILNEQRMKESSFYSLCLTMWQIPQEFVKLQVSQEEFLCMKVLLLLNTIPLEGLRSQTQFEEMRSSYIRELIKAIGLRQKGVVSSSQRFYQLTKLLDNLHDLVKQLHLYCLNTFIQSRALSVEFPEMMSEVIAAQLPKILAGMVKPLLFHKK
test.description: Progesterone receptor-antagonistic action in stably transfected SK-N-MC cells, MMTV-LUC reporter (PR-A)
measurement.context: antagonistic potency vs 0.1 nmol/l promegestone, 24 hours
metric: IC50 (pM)

test.smiles	result.unit	IC50
C[C@]12C[C@H](c3ccc(COC(=O)Nc4ccc(Cl)cc4)cc3)C3=C4CCC(=O)C=C4CC[C@H]3[C@@H]1CC[C@@]2(O)C(F)(F)C(F)(F)F	pM	100

P. C=CCNC(=O)OCc1ccc([C@H]2C[C@@]3(C)[C@@H](CC[C@@]3(O)C(F)(F)C(F)(F)F)[C@@H]3CCC4=CC(=O)CCC4=C32)cc1
Q. CC(=O)c1cccc([C@H]2C[C@@]3(C)[C@@H](CC[C@@]3(O)C(F)(F)C(F)(F)F)[C@@H]3CCC4=CC(=O)CCC4=C32)c1
Q: Hi, I'm comparing two records. Which one has the lower IC50, P or Q ? Response format: the label of the selected entry.
A: P
(P: 100 pM, Q: 5000 pM)

I. C[C@]12C[C@H](c3ccc(CNC(=O)Nc4ccccc4)cc3)C3=C4CCC(=O)C=C4CC[C@H]3[C@@H]1CC[C@@]2(O)C(F)(F)C(F)(F)F
II. CC1(c2ccc([C@H]3C[C@@]4(C)[C@@H](CC[C@@]4(O)C(F)(F)C(F)(F)F)[C@@H]4CCC5=CC(=O)CCC5=C43)cc2)CC1
Q: Identify the entry with the smaller IC50: I or II . API: response body contains the label of the selected item.
A: II
(II: 12 pM, I: 400 pM)

* * *

test.description: Metabolic stability in rat liver microsomes
Assay type: in vitro ADME
measurement.context: calculated from liver microsome clearance
metric: Predicted Fmax (maximum oral bioavailability) (%)

molecule	readout.value
CC(CO)(CO)c1ccc([C@H]2C[C@@]3(C)[C@@H](CC[C@@]3(O)C(F)(F)C(F)(F)F)[C@@H]3CCC4=CC(=O)CCC4=C32)cc1 [Example 15A]	59
C[C@]12C[C@H](c3ccc(CCc4cccnc4)cc3)C3=C4CCC(=O)C=C4CC[C@H]3[C@@H]1CC[C@@]2(O)C(F)(F)C(F)(F)F	20
CCNC(=O)OCc1ccc([C@H]2C[C@@]3(C)[C@@H](CC[C@@]3(O)C(F)(F)C(F)(F)F)[C@@H]3CCC4=CC(=O)CCC4=C32)cc1	49
C[C@]12C[C@H](c3ccc(CCC#N)cc3)C3=C4CCC(=O)C=C4CC[C@H]3[C@@H]1CC[C@@]2(O)C(F)(F)C(F)(F)F	4.9

A. C[C@]12C[C@H](c3ccc(C#N)cc3)C3=C4CCC(=O)C=C4CC[C@H]3[C@@H]1CC[C@@]2(O)C(F)(F)C(F)(F)F
B. C[C@]12C[C@H](c3ccc(CCc4ccccn4)cc3)C3=C4CCC(=O)C=C4CC[C@H]3[C@@H]1CC[C@@]2(O)C(F)(F)C(F)(F)F
Q: Higher Predicted Fmax (maximum oral bioavailability) between A and B ? // output: label of the selected item
A: A
(A: 79%, B: 18%)

* * *

measured.target: human progesterone receptor A (Homo sapiens)
Construct: expressed in transfected cells; host or cells: SK-N-MC human neuroblastoma cells, stably transfected with pRChPR-A-neo and pMMTV-LUC
test.description: Progesterone receptor-antagonistic action in stably transfected SK-N-MC cells, MMTV-LUC reporter (PR-A)
Type: cell-based
measurement.context: antagonistic potency vs 0.1 nmol/l promegestone, 24 hours
metric: IC50 (nM)

1. CCNC(=O)NCc1ccc([C@H]2C[C@@]3(C)C(CC[C@@]3(O)C(F)(F)C(F)(F)F)C3CCC4=CC(=O)CCC4=C32)cc1 (some centres unmarked)
2. C[C@]12C[C@H](c3ccc(CNC(=O)Nc4ccc(N5CCCCC5)cc4)cc3)C3=C4CCC(=O)C=C4CC[C@H]3[C@@H]1CC[C@@]2(O)C(F)(F)C(F)(F)F
Q: Parameter check: reported IC50 is higher for which label, 1 or 2 ? Pick one and reply with its label.
A: 1

I. C[C@]12C[C@H](c3ccc(CCc4ccccn4)cc3)C3=C4CCC(=O)C=C4CC[C@H]3[C@@H]1CC[C@@]2(O)C(F)(F)C(F)(F)F
II. C[C@]12C[C@H](c3ccc(-c4nnn[nH]4)cc3)C3=C4CCC(=O)C=C4CC[C@H]3[C@@H]1CC[C@@]2(O)C(F)(F)C(F)(F)F
III. C[C@]12C[C@H](c3ccc(CNC(=O)Nc4ccc(Cl)cc4)cc3)C3=C4CCC(=O)C=C4CC[C@H]3[C@@H]1CC[C@@]2(O)C(F)(F)C(F)(F)F
IV. C[C@]12C[C@H](c3cccc(CCO)c3)C3=C4CCC(=O)C=C4CC[C@H]3[C@@H]1CC[C@@]2(O)C(F)(F)C(F)(F)F
V. C[C@]12C[C@H](c3ccc(CNC(=O)NCC(=O)O)cc3)C3=C4CCC(=O)C=C4CC[C@H]3[C@@H]1CC[C@@]2(O)C(F)(F)C(F)(F)F
Q: Task for the reader: rank each entry by its IC50, from the minimum upward. Output spec: a listing of the labels in the requested order.
A: I, III, IV, V, II
(I: 0.095 nM, III: 0.7 nM, IV: 1 nM, V: 24 nM, II: 138 nM)

A. C[C@]12C[C@H](c3ccc(-c4ccc(-c5nnn[nH]5)cc4)cc3)C3=C4CCC(=O)C=C4CC[C@H]3[C@@H]1CC[C@@]2(O)C(F)(F)C(F)(F)F
B. C[C@]12C[C@H](c3ccc(C(CO)CO)cc3)C3=C4CCC(=O)C=C4CC[C@H]3[C@@H]1CC[C@@]2(O)C(F)(F)C(F)(F)F
Q: Select the item whose IC50 value is smaller, choosing between A and B . Provide the label of your selected option as the answer.
A: A
(A: 0.3 nM, B: 0.8 nM)

Data credit: patent US9206219B2
